test system: human spermatozoa; assay: progressively motile sperm, percent change vs DMSO (non-capacitating); higher = more of the measured sperm population than DMSO, for viability, fewer PI-positive (dead) cells than DMSO; extreme values may be limits of the assay; conditions: incubation time: 6h incubation, 29.9 µM
Structures can show the parent of a compound that is named as a salt.
Each entry below carries its reported progressively motile sperm.
Just the number in %, nothing appended.

molecule: O=C(N1CCCCC1)N1CCCCC1Cc1ccccc1 (stereo unspecified)
unit_of_measurement: %
progressively motile sperm: 16.4
//
molecule: O=C(O)c1cccnc1Nc1cccc(C(F)(F)F)c1
unit_of_measurement: %
progressively motile sperm: -5.16
//
molecule: C=CC[C@@H]1/C=C(\C)C[C@H](C)C[C@H](OC)[C@H]2O[C@@](O)(C(=O)C(=O)N3CCCC[C@H]3C(=O)O[C@H](/C(C)=C/[C@@H]3CC[C@@H](O)[C@H](OC)C3)[C@H](C)[C@@H](O)CC1=O)[C@H](C)C[C@@H]2OC
unit_of_measurement: %
progressively motile sperm: -20.1
//
molecule: CCN(CC)C(=S)SSC(=S)N(CC)CC
unit_of_measurement: %
progressively motile sperm: -100
//
molecule: CCCCC(CC)C/N=C(\N)N/C(N)=N/CCCCCC/N=C(\N)N/C(N)=N/CC(CC)CCCC (stereo unspecified) [Alexidine dihydrochloride]
unit_of_measurement: %
progressively motile sperm: -100

Response field progressively motile sperm (human spermatozoa) for item c1ccc2c(c1)SCc1c-2[nH]c2ccccc12 : -99.9

----------
Parameter HeLa toxicity: nuclei-count effect normalised: see the listing below.
system: HeLa; experiment: HeLa toxicity: nuclei-count effect normalised to DMSO (DMSO = 0); higher = more features changed / larger toxic effect; details: incubation time: 24h incubation; 29.9 µM
Where a name gives a salt, the structure may show the parent alone.

Sample answers from the record:
compound: COc1cc(SC)ccc1C(=O)N1CCC(Cc2ccccc2)CC1
recorded_value: 2.67%

compound: NC(=O)Nc1cc(-c2cccc(F)c2)sc1C(=O)N[C@H]1CCCNC1 [AZD 7762 hydrochloride]
recorded_value: 76.8%

compound: COc1ccc(CCCN2CCC(COC(c3ccccc3)c3ccccc3)CC2)cc1
recorded_value: 80.9%

compound: CCS(=O)(=O)Nc1ccc2c(c1)/C(=C(/Nc1ccc(CN3CCCCC3)cc1)c1ccccc1)C(=O)N2 [Hesperadin hydrochloride]
recorded_value: 96.7%

compound: CC(=O)N1CCC(C(=O)N(CCCN2CCN(Cc3ccc(F)cc3)CC2)c2ccc(C)c(Cl)c2)CC1 [B07 hydrochloride]
recorded_value: -2.4%

We now examine a further compound.
Observed HeLa toxicity: nuclei-count effect normalised on HeLa, entry O=c1c(-c2ccc(O)cc2)coc2cc(O)cc(O)c12 , equals 22.9%

----------
tested on: human spermatozoa; assay: progressively motile sperm, percent change vs DMSO (non-capacitating); higher = more of the measured sperm population than DMSO, for viability, fewer PI-positive (dead) cells than DMSO; extreme values may be limits of the assay; conditions: incubation time: 10min incubation, 29.9 µM
Counter-ions that a name gives are not always drawn.
quantity_kind: progressively motile sperm (%)
Just the number in %, nothing appended.

compound: NC(=O)c1cc(-c2ccc(S(=O)(=O)[C@H]3CC[C@H](Nc4ccc(C(F)(F)F)cn4)CC3)cc2)ccn1
unit_of_measurement: %
progressively motile sperm: 23

// assay human spermatozoa, entry COC(=O)c1c(C)[nH]c(C)c1C(=O)c1ccccc1Cc1ccccc1 , progressively motile sperm value = -2.66

progressively motile sperm of NC(=O)Nc1cc(-c2cccc(F)c2)sc1C(=O)N[C@H]1CCCNC1 [AZD 7762 hydrochloride] , assay on human spermatozoa, is -57.6

----------
tested on: human spermatozoa; test: total motile sperm, percent change vs DMSO (non-capacitating); higher = more of the measured sperm population than DMSO, for viability, fewer PI-positive (dead) cells than DMSO; conditions: incubation time: 6h incubation, 9.99 µM
quantity_kind: total motile sperm (%)
# unit: % | format: bare number

Record excerpt, results attached:
smiles_notation: Cc1cc2c(C(C)C)c(O)c(O)c(C=O)c2c(O)c1-c1c(C)cc2c(C(C)C)c(O)c(O)c(C=O)c2c1O
unit_of_measurement: %
recorded_value: -0.633

smiles_notation: CNS(=O)(=O)c1ccccc1Nc1nc(Nc2ccc(C3CCN(C)CC3)cc2OC)ncc1Cl
unit_of_measurement: %
recorded_value: -63.1

smiles_notation: O=C(O)c1cccnc1Nc1cccc(C(F)(F)F)c1
unit_of_measurement: %
recorded_value: -3.08

smiles_notation: N=C(N)Nc1ccc(C(=O)Oc2ccc3cc(C(=N)N)ccc3c2)cc1
unit_of_measurement: %
recorded_value: -5.56

# input for lookup
Record CCCCCCCCOc1ccc(-c2noc([C@@H]3CCCN3C(=N)N)n2)cc1C(F)(F)F has human spermatozoa total motile sperm equal to -86.2

----------
system: human spermatozoa; experiment: acrosome-reacted (PNA+) sperm after agonist cocktail, percent change vs DMSO (capacitating); higher = more of the measured sperm population than DMSO, for viability, fewer PI-positive (dead) cells than DMSO; details: incubation time: 3h; 29.9 µM; capacitating + agonist cocktail 1h
Criterion: acrosome-reacted meeting or surpassing 30%. Met: rule met. Not met: rule not met.

compound: CNS(=O)(=O)c1ccccc1Nc1nc(Nc2ccc(C3CCN(C)CC3)cc2OC)ncc1Cl
discrete_label: rule met

Qu. Kindly determine if acrosome-reacted recorded for CCc1c(C)nc(SCC(=O)Nc2nc(-c3ccc(OC)cc3)cs2)[nH]c1=O is above or exactly 30%.
Ans. rule not met

----------
In this section we review reported total motile sperm values for a set of molecules.
system: human spermatozoa; assay: total motile sperm, percent change vs DMSO (non-capacitating); higher = more of the measured sperm population than DMSO, for viability, fewer PI-positive (dead) cells than DMSO; conditions: incubation time: 6h incubation, 9.99 µM
Where a name gives a salt, the structure may show the parent alone.
Numbers only; they are read as %.

Illustrative cases are given below, each with its answer.
molecule: Clc1ccc(C(OCCN2CCCCC2)c2ccccc2)cc1 (configuration not stated) [Cloperastine hydrochloride]
recorded_value: -19.1

molecule: CCOC(=O)CSc1nc(=O)c(NCC(=O)OC)n[nH]1
recorded_value: -5.02

molecule: CCc1c(C)nc(SCC(=O)Nc2nc(-c3ccc(OC)cc3)cs2)[nH]c1=O
recorded_value: -7.94

Entry C[C@]1(O)C[C@@H](c2nc(-c3ccc4ccc(-c5ccccc5)nc4c3)c3c(N)nccn32)C1 , total motile sperm reported as -8.05

Reported total motile sperm of [O-][S+](c1ccccc1)c1ccc2nnnn2n1 (configuration not stated) : -92.2

The reported value for CCCCC(CC)C/N=C(\N)N/C(N)=N/CCCCCC/N=C(\N)N/C(N)=N/CC(CC)CCCC (configuration not stated) [Alexidine dihydrochloride] in terms of total motile sperm is -92.8

The molecule listed as CC(=O)N1CCC(C(=O)N(CCCN2CCN(Cc3ccc(F)cc3)CC2)c2ccc(C)c(Cl)c2)CC1 [B07 hydrochloride] has a reported total motile sperm of -2.31

Note to self: total motile sperm recorded for CCCCCCCCCCCCCCCCOCC(COCC(F)(F)F)OP(=O)([O-])OC (configuration not stated) was -9.12

Entry under test: Nc1nc(Cl)nc2c1ncn2[C@@H]1O[C@H](CO)[C@@H](O)[C@@H]1F . Its total motile sperm was -25.1

----------
test system: HepG2; assay: HepG2 toxicity (resazurin), effect normalised to DMSO (DMSO = 0); higher = more features changed / larger toxic effect; conditions: incubation time: 70h incubation; 30 µM
Where a name gives a salt, the structure may show the parent alone.
Decision: HepG2 toxicity compared against 40%; not below it gives True, below it gives False.

// below: answered molecules
molecule: CCc1c(C)nc(SCC(=O)Nc2nc(-c3ccc(OC)cc3)cs2)[nH]c1=O
discrete_label: False

molecule: O=S(=O)(NCCNC/C=C/c1ccc(Br)cc1)c1cccc2cnccc12 [H 89 dihydrochloride]
discrete_label: True

molecule: Cc1[nH]c(/C=C2\C(=O)Nc3ccc(S(=O)(=O)Cc4c(Cl)cccc4Cl)cc32)c(C)c1C(=O)N1CCC[C@@H]1CN1CCCC1
discrete_label: True

molecule: CCOCc1nc2c(N)nc3ccccc3c2n1CC(C)(C)O
discrete_label: False

molecule: COCC(=O)O[C@]1(CCN(C)CCCc2nc3ccccc3[nH]2)CCc2cc(F)ccc2[C@@H]1C(C)C
discrete_label: True

molecule: CC(C)(C)c1ccc(S(=O)(=O)Nc2cnc3[nH]c(C(=O)N[C@H]4CCC[C@H]4O)c(-c4ccccc4)c3c2)cc1
discrete_label: False

molecule: C=CC[C@@H]1/C=C(\C)C[C@H](C)C[C@H](OC)[C@H]2O[C@@](O)(C(=O)C(=O)N3CCCC[C@H]3C(=O)O[C@H](/C(C)=C/[C@@H]3CC[C@@H](O)[C@H](OC)C3)[C@H](C)[C@@H](O)CC1=O)[C@H](C)C[C@@H]2OC
discrete_label: False

molecule: N=C(N)Nc1nc2ccccc2[nH]1
discrete_label: False

Please find the next molecule below.
Qu. Decide: HepG2 toxicity of CCOc1ccc(-c2nc(-c3cccc4c3CCC4NCCO)no2)cc1OCC (stereo unspecified) [CYM 5442 hydrchloride] >= 40%?
Ans. True
